B1: CCDC6 (parent)
chain: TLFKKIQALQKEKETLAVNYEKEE

# Variants of: B1
# protocol_summary: protein stability index of a GFP-peptide fusion (GPS, HEK-293T) (PSI 1-6); higher = more stable;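 also: lentivirally expressed fusions sorted by FACS into six bins by GFP to DsRed ratio, PSI derived from sequencing read proportions per bin multiplied by bin number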
# assay_conditions: c terminus: a fixed tail appended
Assign class by protein stability index: not lower than 3 means 1; lower than 3 means -1.

Worked cases, answers included:
- mutant_designation: "K22F"
  group: -1
- mutant_designation: "Y20L"
  group: 1
- mutant_designation: "E24H"
  group: -1

Proceed to the following item.
Does the reported protein stability index for `A8F` fall at or above the 3 mark?
1

Source: the supplement of paper PMC10567573
